Tested on: 324938-238-R-J1-PDC complex spheroid viability;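 note: spheroids also contain HUVEC and human MSCs and agents combined with iadademstat; spheroids exposed to agents for 7 days before readout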
assay details: Anticancer human tumor 324938-238-R-J1-PDC patient-derived bladder carcinoma cell line growth inhibition
applied conditions: curve of first compound; second compound 10 µM
experimental endpoint: IC50 (µM)
Write it as a number; the unit µM goes unstated.

Look at this compound and give its reported IC50. COc1cc(C2c3cc4c(cc3C(OC3OC5COC(C)OC5C(O)C3O)C3COC(=O)C23)OCO4)cc(OC)c1O (centres undefined) + NC1CCC(NC2CC2c2ccccc2)CC1
0.0833

Look at this compound and give its reported IC50. CC[C@@]1(O)C(=O)OCc2c1cc1n(c2=O)Cc2cc3c(CN(C)C)c(O)ccc3nc2-1 + NC1CCC(NC2CC2c2ccccc2)CC1
0.00116

Look at this compound and give its reported IC50. O=C(c1cc(Cc2n[nH]c(=O)c3ccccc23)ccc1F)N1CCN(C(=O)C2CC2)CC1 + NC1CC1c1ccc(-c2cccc(O)c2)cc1
1.22

Look at this compound and give its reported IC50. CC1COCCN1c1cc(-c2ccnn2C)c2ccnc(-c3ccn[nH]3)c2n1 (centres undefined) + NC1CCC(NC2CC2c2ccccc2)CC1
0.0216

// data source = PubChem BioAssay AID1918935
